# Organism: Rattus norvegicus
# assay: Compound was tested for inhibition of [3H]spiperone binding in membrane preparations obtained from rat corpus striatum.
# Assay type: functional
resultType: pIC50
// pIC50 is dimensionless: -log10 of concentration (M)

Challenge: For CN(C)C1CCN2c3ccccc3Sc3cccc(c32)C1 (stereo unspecified) , what is its reported pIC50?
Response given: 5.67

Source: ChEMBL document CHEMBL1121498
